biological target: Serine/threonine-protein kinase pim-1 (Homo sapiens); assay type: functional
Sequence (P11309 whole entry): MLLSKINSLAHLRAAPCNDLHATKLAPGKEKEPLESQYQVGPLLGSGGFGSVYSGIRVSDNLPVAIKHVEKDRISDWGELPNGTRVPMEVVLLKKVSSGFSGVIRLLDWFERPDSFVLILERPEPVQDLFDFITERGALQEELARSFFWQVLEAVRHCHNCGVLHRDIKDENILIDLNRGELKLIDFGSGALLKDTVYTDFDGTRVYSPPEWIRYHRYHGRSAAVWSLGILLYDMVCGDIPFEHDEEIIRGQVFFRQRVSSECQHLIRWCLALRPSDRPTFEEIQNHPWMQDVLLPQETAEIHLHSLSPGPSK
Activity calls are given as the source filed them.
Entry note: the call must match one of active, inactive

Example results:
- molecule: "CC(C)(C)Oc1cc(-c2ccncc2)cc2[nH]nc(N)c12"
  classification: "active"
- molecule: "CCOC(=O)c1cn(-c2ccc(O)cc2C)c2cc(-c3ccccc3)ccc2c1=O"
  classification: "active"
- molecule: "COc1cccc(C(C)NC(=O)c2ccc(-c3ccncc3)s2)c1 (centres undefined)"
  classification: "inactive"

Please look at the following molecule next.
Input line: Given `CCOC(=O)Cc1nc2c(N)cccc2[nH]1` , state the outcome it received in this test.
Output line: inactive

###

Molecular target: Nucleotide-binding oligomerization domain-containing protein 1 (Homo sapiens, UniProt Q9Y239)
Sequence (Q9Y239 whole entry): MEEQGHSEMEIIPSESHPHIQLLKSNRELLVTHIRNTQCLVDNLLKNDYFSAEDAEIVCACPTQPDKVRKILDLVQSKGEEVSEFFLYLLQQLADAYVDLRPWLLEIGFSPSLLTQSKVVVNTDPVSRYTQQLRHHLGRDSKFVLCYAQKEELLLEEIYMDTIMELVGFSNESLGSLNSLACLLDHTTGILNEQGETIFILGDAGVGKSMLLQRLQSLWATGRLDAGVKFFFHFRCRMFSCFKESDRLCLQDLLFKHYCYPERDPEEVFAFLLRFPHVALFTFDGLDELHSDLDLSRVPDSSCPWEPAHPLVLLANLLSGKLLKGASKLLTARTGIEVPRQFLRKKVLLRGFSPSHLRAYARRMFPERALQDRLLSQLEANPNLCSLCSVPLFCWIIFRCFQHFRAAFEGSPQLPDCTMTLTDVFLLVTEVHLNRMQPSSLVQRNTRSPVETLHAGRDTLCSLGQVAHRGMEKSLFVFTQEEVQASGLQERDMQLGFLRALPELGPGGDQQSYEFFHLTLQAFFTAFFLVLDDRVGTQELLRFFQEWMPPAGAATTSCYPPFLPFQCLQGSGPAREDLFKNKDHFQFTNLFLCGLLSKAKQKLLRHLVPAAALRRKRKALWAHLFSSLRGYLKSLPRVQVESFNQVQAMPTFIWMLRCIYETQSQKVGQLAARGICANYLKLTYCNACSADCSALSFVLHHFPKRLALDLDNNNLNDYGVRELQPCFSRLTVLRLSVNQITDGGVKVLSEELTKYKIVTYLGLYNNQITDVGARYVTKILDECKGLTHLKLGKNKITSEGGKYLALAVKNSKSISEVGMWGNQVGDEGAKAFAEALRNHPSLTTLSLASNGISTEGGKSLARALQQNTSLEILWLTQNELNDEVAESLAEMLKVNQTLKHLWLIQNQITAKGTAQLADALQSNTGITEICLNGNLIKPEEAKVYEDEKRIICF
Assay: NOD1 signaling inhibitors, SAR follow-up, revised (AID 2333)
Type: functional
Calls of active or inactive are those of the source.
Your response should consist of one outcome taken from y (active), n (inactive)

- molecule: "CC1(C)Cc2c(sc(NC(=O)C(=O)N3CCCCC3)c2C(=O)O)CO1"
  classification: "n"
- molecule: "CC1(C)Cc2c(sc(NC(=O)c3ccccc3)c2C(=O)O)CO1"
  classification: "n"
- molecule: "COc1ccc(N2CCN(C(=O)c3ccc(CNS(=O)(=O)c4ccc(C)cc4)cc3)CC2)cc1"
  classification: "n"
- molecule: "CC(=O)Nc1nc2ccccc2n1S(=O)(=O)c1ccc(Cl)cc1"
  classification: "y"
- molecule: "COc1ccc(N2CCN(S(=O)(=O)c3ccc4c(c3)NC(=O)C(C)S4)CC2)cc1 (stereo unspecified)"
  classification: "y"

Proceed to the following item.
Input line: I would be grateful if you could indicate the recorded call for CC(=O)c1ccc(N2CCN(S(=O)(=O)c3ccc4c(c3)CC(C)N4C(=O)C3CC3)CC2)cc1 (stereo unspecified) .
Output line: y

###

biological target: Induced myeloid leukemia cell differentiation protein Mcl-1 (Homo sapiens); assay type: functional
Sequence (Q07820 whole entry): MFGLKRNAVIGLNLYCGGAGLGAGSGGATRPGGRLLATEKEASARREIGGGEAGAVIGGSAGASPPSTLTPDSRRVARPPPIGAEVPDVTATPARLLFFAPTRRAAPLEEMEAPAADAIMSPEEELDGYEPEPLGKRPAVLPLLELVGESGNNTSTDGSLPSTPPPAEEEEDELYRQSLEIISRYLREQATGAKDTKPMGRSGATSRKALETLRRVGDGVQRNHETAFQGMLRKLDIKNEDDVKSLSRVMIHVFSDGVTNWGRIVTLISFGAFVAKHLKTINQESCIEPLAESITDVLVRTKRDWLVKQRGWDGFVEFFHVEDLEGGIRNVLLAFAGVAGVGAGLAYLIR
The source made the active and inactive calls.
quantity measured: IC50

Sample records with IC50:
- molecule: "CCCOc1[nH]cnc2c3ccccc3nc1-2"
  IC50: "19.6 µM (not active)"
- molecule: "CCOC(=O)NNc1ccc2nonc2c1[N+](=O)[O-]"
  IC50: "42.2 µM (active)"
- molecule: "O=C(N/N=C/c1ccc(O)c(O)c1O)/C(=C/c1ccc([N+](=O)[O-])cc1)NC(=O)c1ccccc1"
  IC50: "19.3 µM (active)"
- molecule: "CN1C=C/C(=C\\c2cc[n+](C)c3ccccc23)c2ccccc21"
  IC50: "13 µM (active)"
- molecule: "CCN1c2ccccc2N(C)C1(C)c1ccccc1 (centres undefined)"
  IC50: "9.19 µM (active)"

Reported IC50 for `C=CCOC(=O)/C(=C\c1ccccc1)NC(=O)c1ccc(C)cc1` was 2.49 µM (not active)

IC50 in this record for `COc1ccc(C(=O)/N=c2\c(C#N)cc3c(=O)n4cccc(C)c4nc3n2Cc2ccco2)cc1` : 3.9 µM (active)

Note to self: IC50 recorded for `COc1ccccc1NC1=C(NC(C)=O)C(=O)c2ccccc2C1=O` was 2.28 µM (active)

So, `O=C(O)c1ccc2nc(-c3ccco3)c(-c3ccco3)nc2c1` ? Its IC50 was > 54 µM (active)

###

test: human group III sPLA2 inhibitors, dose response, biochemical, QFRET, IC50 (AID 743457);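 further: green fluorescence rise as the enzyme cleaves BODIPY PC-A2 in liposomes; potency for inhibition of the enzyme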
Structures can show the parent of a compound that is named as a salt. The source made the active and inactive calls.
IC50 values by entry

- molecule: "O=C1c2c(O)ccc(O)c2C(=O)c2c(NCCNCCO)ccc(NCCNCCO)c21 [MITOXANTRONE HYDROCHLORIDE]"
  IC50: "> 122 µM (inactive)"
- molecule: "Cc1ccccc1OCC(=O)NNC(=S)NC(=O)c1ccccc1[N+](=O)[O-]"
  IC50: "64.9 µM (inactive)"
- molecule: "O=C(NNC(=S)NC(=O)c1ccccc1[N+](=O)[O-])c1ccccc1Cl"
  IC50: "115 µM (inactive)"

Now examine the next entry.
Consider `O=C(NN=C(S)NC1CCCCC1)c1ccccc1O` . Its measured IC50 is > 122 µM (inactive)

###

Target: Sentrin-specific protease 7 (Homo sapiens);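 further: Luminescence-based dose-response confirmation of ultra-high-throughput screening hits, measuring inhibition of SENP7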
Sequence (Q9BQF6 whole entry): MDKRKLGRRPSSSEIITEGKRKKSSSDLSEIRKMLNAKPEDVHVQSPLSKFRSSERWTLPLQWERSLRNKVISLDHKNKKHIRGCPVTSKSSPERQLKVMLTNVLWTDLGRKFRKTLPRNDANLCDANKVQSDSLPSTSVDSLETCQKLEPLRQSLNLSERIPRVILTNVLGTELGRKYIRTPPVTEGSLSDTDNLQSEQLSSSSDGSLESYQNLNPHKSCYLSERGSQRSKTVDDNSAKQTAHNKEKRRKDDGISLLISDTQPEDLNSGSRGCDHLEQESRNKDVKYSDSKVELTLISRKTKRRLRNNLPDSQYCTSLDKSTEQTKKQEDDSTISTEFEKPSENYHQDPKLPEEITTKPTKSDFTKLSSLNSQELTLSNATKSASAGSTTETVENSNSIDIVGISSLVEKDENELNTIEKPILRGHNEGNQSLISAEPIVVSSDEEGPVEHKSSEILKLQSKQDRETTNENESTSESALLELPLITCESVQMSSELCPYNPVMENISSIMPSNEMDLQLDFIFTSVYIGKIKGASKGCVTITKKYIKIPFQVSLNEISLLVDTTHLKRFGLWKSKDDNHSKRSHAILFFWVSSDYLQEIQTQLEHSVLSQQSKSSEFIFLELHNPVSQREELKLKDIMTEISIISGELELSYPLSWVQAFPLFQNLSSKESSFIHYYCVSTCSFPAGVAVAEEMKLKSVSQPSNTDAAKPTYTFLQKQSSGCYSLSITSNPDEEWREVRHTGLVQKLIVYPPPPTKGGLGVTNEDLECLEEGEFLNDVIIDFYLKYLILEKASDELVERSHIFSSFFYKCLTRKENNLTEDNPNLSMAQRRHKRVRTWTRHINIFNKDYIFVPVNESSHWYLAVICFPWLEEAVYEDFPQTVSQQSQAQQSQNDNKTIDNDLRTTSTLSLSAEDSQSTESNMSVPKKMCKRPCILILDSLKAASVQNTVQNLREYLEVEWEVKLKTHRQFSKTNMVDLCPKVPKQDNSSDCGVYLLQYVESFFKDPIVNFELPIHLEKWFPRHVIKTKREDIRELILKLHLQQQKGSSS
Format: functional
Active and inactive are the calls of the source.
Collected IC50 values appear next to each entry.

Would you please look over these solved cases?
- compound structure: "Cc1ccc(NC(=O)COc2cccc(/C=C3\\SC(=S)N(CCC(=O)O)C3=O)c2)cc1Cl"
  assay system: "Sentrin-specific protease 7 (Homo sapiens)"
  IC50: "18.3 µM (active)"
- compound structure: "COc1cc(NC(=O)COC(=O)c2ccc([N+](=O)[O-])s2)cc(OC)c1OC"
  assay system: "Sentrin-specific protease 7 (Homo sapiens)"
  IC50: "5.51 µM (active)"
- compound structure: "Cc1cc(C)n(CCc2nc(-c3ccc(-c4ccccc4)cc3)cs2)n1"
  assay system: "Sentrin-specific protease 7 (Homo sapiens)"
  IC50: "4.98 µM (active)"
- compound structure: "CCOC(=O)NNc1ccc2nonc2c1[N+](=O)[O-]"
  assay system: "Sentrin-specific protease 7 (Homo sapiens)"
  IC50: "10.8 µM (active)"

// next entry
// IC50 (Sentrin-specific protease 7 (Homo sapiens)) for `O=Nc1c(-c2c(O)[nH]c3cc(Br)ccc23)[nH]c2ccccc12` = 5.6 µM (active)
